Test system: HCT116 WT cells
Experiment: HCT116 WT cell proliferation / viability (CellTiter-Glo, 6 days)
Type: cell-based
Details: Homo sapiens, HCT-116, 144 h, HCT116 WT cells, 6 days, CellTiter-Glo; read-out: HCT-116 WT IC50
value-type: log10 IC50 (log10 of the value in µM)

> print(dat)
                                    compound  number
 1  C[C@H]1OCc2c1c(N)nc1ccc(C(=O)N(Cc3ccc(C(F)(F)F)cn3)c3cnn(C)c3)cc21   -0.48
 2  C[C@H](c1ncccc1F)N(Cc1ccc(Br)nn1)C(=O)c1cc2c3c(c(N)nc2cc1F)COC3   -0.45
 3  CC(C)N(Cc1ccc(C2CC2)cn1)C(=O)c1cc2c3c(c(N)nc2cn1)COC3    0.86
 4  CN(Cc1ccc(F)nc1F)C(=O)c1cc2c(cc1F)nc(N)c1cnn(C)c12    1.49
 5  CN(Cc1ccc(C(F)(F)F)nn1)C(=O)c1cc2c3c(c(N)nc2cc1F)COC3    1.01
 6  C[C@H](c1ccc(C(F)(F)F)cc1)N(C)C(=O)c1cc2c(cn1)nc(N)c1cnn(C)c12 (single isomer, unassigned)   -0.38
 7  CC(C)N(Cc1ccc(OC(F)(F)F)cn1)C(=O)c1ccc2nc(N)c3c(c2c1)COC3    0.07
 8  CC(c1ccc(F)cn1)N(C)C(=O)c1cc2c3c(c(N)nc2cc1Cl)COC3 (racemic)    1.26
 9  CCN(Cc1cnc(C(F)(F)F)cn1)C(=O)c1ccc2nc(N)c3c(c2c1)CO[C@@H]3C    1.51
10  C[C@H](c1ncccn1)N(Cc1ccc(Br)cn1)C(=O)c1ccc2nc(N)c3c(c2c1)COC3   -1.15
11  CCN(C(=O)c1cc2c3c(c(N)nc2cn1)COC3)[C@H](C)c1ccc(C(F)(F)F)nn1    0.68
12  C[C@H](c1ncccn1)N(Cc1ccc(C(F)(F)F)cn1)C(=O)c1ccc2nc(N)c3ccccc3c2c1   -0.40
13  CC(C)N(Cc1ccc(C#N)cn1)C(=O)c1cc2c3c(c(N)nc2cc1Cl)COC3    0.19
14  C[C@H](c1ncn(C)n1)N(Cc1ccc(C(F)F)cn1)C(=O)c1ccc2nc(N)c3c(c2c1)COC3   -0.54
15  C[C@H]1OCc2c1c(N)nc1ccc(C(=O)N(C)Cc3ccc(C(F)(F)F)cn3)cc21    1.18
16  CC(C)N(C(=O)c1cc2c3c(c(N)nc2cc1Cl)COC3)[C@H](C)c1ccc(C(F)(F)F)cn1 (single isomer, unassigned)    0.35
17  C[C@H](c1ccc(C(F)(F)F)nn1)N(C)C(=O)c1cc2c3c(c(N)nc2cc1F)[C@@H](C)OC3 (single isomer, unassigned)    0.34
18  C[C@H](c1ccc(C(F)(F)C(F)(F)F)cc1)N(C)C(=O)c1cc2c(cn1)nc(N)c1c2cnn1C    0.87
19  CN(Cc1ccc(C(F)(F)C(F)(F)F)cc1)C(=O)c1ccc2nc(N)c3cnn(C)c3c2c1    0.73
20  CN(Cc1ccc(C(F)(F)F)nn1)C(=O)c1cc2c(cc1F)nc(N)c1cnn(C)c12    0.69
21  CN(Cc1ccc(C(F)(F)F)cc1)C(=O)c1ccc2nc(N)c3cnn(C)c3c2c1    0.30
22  CC1OCc2c1c(N)nc1ccc(C(=O)N(CC3=CCCOC3)Cc3ccc(C(F)(F)F)cn3)cc21 (centres unmarked)    0.62
23  COCC(C)N(Cc1ccc(C(F)(F)F)nn1)C(=O)c1cc2c3c(c(N)nc2cc1F)COC3 (racemic)   -0.16
24  C[C@@H](c1ccc(C(F)(F)F)cn1)N(C)C(=O)c1cc2c(cc1F)nc(N)c1cnn(C)c12 (single isomer, unassigned)    1.07
25  C[C@H](c1ccc(C(F)(F)F)nn1)N(C(=O)c1ccc2nc(N)c3c(c2c1)COC3)C1CCC1    1.17
26  CC(C)N(Cc1ccc(C2CC2)cn1)C(=O)c1cc2c3c(c(N)nc2cc1F)COC3   -0.54
27  C[C@H](c1ccc(C(F)(F)F)cn1)N(C(=O)c1cc2c3c(c(N)nc2cn1)[C@@H](C)OC3)C1CC1 (single isomer, unassigned)   -0.09
28  C[C@H](c1ncc(F)cn1)N(CCOC(F)(F)F)C(=O)c1cc2c3c(c(N)nc2cc1F)COC3 (single isomer, unassigned)    1.29

###

Tested on: HCT116 WT cells
Test: HCT116 WT cell proliferation / viability (CellTiter-Glo, 6 days)
Assay type: cell-based
Settings: Homo sapiens, HCT-116, 144 h, HCT116 WT cells, 6 days, CellTiter-Glo; read-out: HCT-116 WT IC50
Each entry below carries its recorded log10(IC50).
value-type: log10(IC50) (log10 of the value in µM)

> print(dat)
                                   molecule  number
1  C[C@H](c1ncc(C(F)(F)F)cc1F)N(C)C(=O)c1cc2c(cc1F)nc(N)c1cnn(C)c12 (single isomer, unassigned)   -0.47
2  C[C@H]1OCc2c1c(N)nc1cnc(C(=O)N(Cc3ccc(OC(F)F)nn3)CC3CC3)cc21    0.13
3  Cn1cc(N(Cc2ccc(C(F)F)cn2)C(=O)c2cc3c4c(c(N)nc3cn2)CCC4)cn1    0.07
4  CCN(Cc1ccc(C(F)(F)F)nn1)C(=O)c1ccc2nc(N)c3cnn(C)c3c2c1    0.84
5  COC[C@@H](C)N(Cc1ccc(C(F)(F)F)cn1)C(=O)c1cc2c3c(c(N)nc2cn1)COC3   -0.18
6  C[C@@H]1OCc2c1c(N)nc1cnc(C(=O)N(Cc3ccc(C(F)(F)F)cn3)C3CC3)cc21    1.56

###

System: HCT116 WT cells
Test: HCT116 WT cell proliferation / viability (CellTiter-Glo, 6 days)
Type: cell-based
Details: Homo sapiens, HCT-116, 144 h, HCT116 WT cells, 6 days, CellTiter-Glo; read-out: HCT-116 WT IC50
pIC50: −log10 of the molar value.
value-type: pIC50

> print(dat)
                                   molecule  measurement.target  value.type  value.comparator  number
1  CCOc1ccc(CN(CC2CC2)C(=O)c2ccc3nc(N)c4c(c3c2)CO[C@@H]4C)nn1     HCT116 WT cells       pIC50                 =    5.72
2  Cn1cc(N(Cc2ccc(C(F)(F)F)cn2)C(=O)c2cc3c4c(c(N)nc3cn2)COC4)cn1     HCT116 WT cells       pIC50                 =    6.22
3  Nc1nc2cc(F)c(C(=O)N(Cc3ccc(C(F)(F)F)nn3)C3CCC3)cc2c2c1COC2     HCT116 WT cells       pIC50                 =    5.92
4  Cn1ncc2c(N)nc3ccc(C(=O)N(Cc4ccc(C(F)(F)F)cn4)CC(F)(F)F)cc3c21     HCT116 WT cells       pIC50                 =    6.12
5  COCC(C1CC1)N(Cc1ccc(Br)nn1)C(=O)c1ccc2nc(N)c3sccc3c2c1 (racemic)     HCT116 WT cells       pIC50                 =    5.50
6  CC(C)N(Cc1ccc(C2CC2)nc1)C(=O)c1ccc2nc(N)c3c(c2c1)COC3     HCT116 WT cells       pIC50                 =    4.76
7  Nc1nc2cnc(C(=O)N(Cc3ccc(C(F)(F)F)cn3)CC3CC3)cc2c2c1COC2     HCT116 WT cells       pIC50                 =    5.86
8  CN(Cc1ccc(C(F)(F)F)cc1)C(=O)c1cc2c3c(c(N)nc2cn1)COC3     HCT116 WT cells       pIC50                 <    5.00

###

System: HCT116 WT cells
Assay: HCT116 WT cell proliferation / viability (CellTiter-Glo, 6 days)
Assay type: cell-based
Details: Homo sapiens, HCT-116, 144 h, HCT116 WT cells, 6 days, CellTiter-Glo; read-out: HCT-116 WT IC50
Threshold check on IC50: strictly below 3 µM is True; on or above 3 µM is False.

> print(dat)
                                    molecule    cat
 1  COCC(C)N(Cc1ccc(C(F)(F)F)nn1)C(=O)c1ccc2nc(N)c3c(c2c1)COC3 (racemic)   True
 2  Cn1cc(N(Cc2ccc(C(F)(F)F)nn2)C(=O)c2cc3c4c(c(N)nc3cc2F)COC4)cn1   True
 3  C[C@H](CF)N(Cc1ccc(C#N)cn1)C(=O)c1ccc2nc(N)c3c(c2c1)COC3 (single isomer, unassigned)  False
 4  Nc1nc2ccc(C(=O)N(Cc3ccc(C(F)(F)F)nn3)CC3CC3)cc2c2c1COC2   True
 5  CCN(Cc1ccc(C(F)(F)F)cn1)C(=O)c1ccc2nc(N)c3c(c2c1)CO[C@H]3CF (single isomer, unassigned)  False
 6  CCN(Cc1ccc(C(F)(F)F)nn1)C(=O)c1cc2c(cn1)nc(N)c1cnn(C)c12   True
 7  C[C@H](c1ncccn1)N(Cc1ccc(Cl)cn1)C(=O)c1cnc2nc(N)c3c(c2c1)CCC3   True
 8  CCN(C(=O)c1cc2c3c(c(N)nc2cc1F)COC3)[C@H](C)c1ccc(C(F)(F)F)cn1   True
 9  CC(CF)N(Cc1ccc(C#N)cn1)C(=O)c1cc2c3c(c(N)nc2cn1)COC3 (racemic)  False
10  C[C@H]1OCc2c1c(N)nc1ccc(C(=O)N(C)Cc3ccc(C4CC4)cn3)cc21  False
11  C[C@H](c1ncc(F)cc1F)N(C)C(=O)c1cc2c(cc1F)nc(N)c1cnn(C)c12 (single isomer, unassigned)  False
12  CC(C)N(Cc1ccc(C#N)cn1)C(=O)c1cc2c3c(c(N)nc2cn1)COC3  False
13  C[C@H](c1ncccn1)N(Cc1ccc(C(F)(F)F)cn1)C(=O)c1cnc2nc(N)c3c(c2c1)COC3   True
14  C[C@H](c1ccc(-c2ccc(C(F)(F)F)cc2)cc1)N(C)C(=O)c1ccc2nc(N)c3cnn(C)c3c2c1   True
15  Nc1nc2ccc(C(=O)N(Cc3ccc(C(F)(F)F)cn3)Cc3ncccn3)cc2c2cnccc12   True
16  CC(c1ccc(C(F)(F)F)cn1)N(C)C(=O)c1ccc2nc(N)c3c(cnn3C)c2c1 (racemic)  False
17  CN(Cc1ccc(C2CC2)cn1)C(=O)c1cc2c3c(c(N)nc2cn1)COC3  False
18  Cn1ncc2c3cc(C(=O)N(Cc4ccc(C(F)(F)F)cn4)C4CC4)c(Cl)cc3nc(N)c21  False
19  C[C@@H](c1ccc(C(F)(F)F)nn1)N(C(=O)c1cc2c(cc1F)nc(N)c1cnn(C)c12)C1CC1 (single isomer, unassigned)  False
20  CN(Cc1ccc(C2CC2)nn1)C(=O)c1cc2c3c(c(N)nc2cc1Cl)COC3  False
21  N#Cc1ccc(CN(C(=O)c2cc3c4c(c(N)nc3cc2Cl)COC4)C2CC2)nc1  False
22  CCN(C(=O)c1cc2c3c(c(N)nc2cc1Cl)COC3)C(C)c1ccc(Cl)nc1 (racemic)   True
23  CN(Cc1ccc(C(F)(F)F)cn1)C(=O)c1cc2c3c(c(N)nc2cn1)COC3  False
24  CN(Cc1ccc(C(F)(F)F)nn1)C(=O)c1cc2c3c(c(N)nc2cn1)COC3  False
25  CCN(Cc1ccc(C(F)(F)F)nn1)C(=O)c1cc2c(cc1Cl)nc(N)c1cnn(C)c12   True
26  Cn1cc(N(Cc2ccc(C(F)(F)F)cn2)C(=O)c2ccc3nc(N)c4c(c3c2)COC4)cn1   True
27  Nc1nc2ccc(C(=O)N(Cc3ccc(OC(F)F)nn3)CC3CC3)cc2c2c1COC2  False
28  C[C@H](c1ccc(S(F)(F)(F)(F)F)cc1)N(C)C(=O)c1cc2c(cc1F)nc(N)c1cnn(C)c12 (single isomer, unassigned)   True
29  Nc1nc2ccc(C(=O)N(Cc3ccc(C(F)(F)F)cn3)C34CC(C3)C4)cc2c2c1COC2   True

Ref: patent US20240101570A1
